- Tested On: isolated kinase domain of the human FLT3 receptor (a.a. 571-993) (Homo sapiens, UniProt P36888)
- Construct: isolated kinase domain of the human FLT3 receptor (a.a. 571-993)
- Sequence (P36888 571-993): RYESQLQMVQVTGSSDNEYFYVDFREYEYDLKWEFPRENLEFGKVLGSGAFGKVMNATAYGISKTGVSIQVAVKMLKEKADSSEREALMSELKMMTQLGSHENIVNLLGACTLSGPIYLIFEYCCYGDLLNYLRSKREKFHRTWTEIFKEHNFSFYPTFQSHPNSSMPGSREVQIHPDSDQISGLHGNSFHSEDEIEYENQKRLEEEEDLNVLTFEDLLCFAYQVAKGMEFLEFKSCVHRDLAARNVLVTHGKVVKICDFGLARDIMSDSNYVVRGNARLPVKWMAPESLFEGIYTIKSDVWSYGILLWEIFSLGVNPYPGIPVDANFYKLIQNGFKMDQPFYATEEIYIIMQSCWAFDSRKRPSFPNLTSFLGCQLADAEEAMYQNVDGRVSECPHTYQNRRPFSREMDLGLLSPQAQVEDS
- Experiment Summary: FLT3 Fluorescence Polarization Kinase Assay
- Assay type: biochemical
- Test Context: 10 nM FLT3 571-993, 150 uM ATP; uncertainty ±10%
pIC50: −log10 of the molar value.
Output Fulfilled for pIC50 not less than 6; output Not fulfilled otherwise.

Molecule | Classification
CO/N=C/c1c(N)ncnc1N1CCC(NC(=O)Nc2ccc(Oc3ccccc3)cc2)CC1 | Fulfilled
CO/N=C/c1c(N)ncnc1N1CCC(NC(=O)Nc2ccc(N3CCCCC3)cc2)C1 (centres unmarked) | Fulfilled
CO/N=C/c1c(N)ncnc1N1CCC(NC(=O)Nc2ccc(OC3CCCC3)nc2)CC1 | Fulfilled
CO/N=C/c1c(N)ncnc1N1CCC(NC(=O)Nc2ccc(C3CCCCC3)cc2)C1 (centres unmarked) | Not fulfilled
CO/N=C/c1c(N)ncnc1N1CCC(CC(=O)Nc2ccc(C(C)C)cc2)CC1 | Fulfilled
CC(C)c1ccc(NC(=O)NC2CCN(c3ncnc(N)c3/C=N/OCCN)C2)cc1 (centres unmarked) | Not fulfilled
CO/N=C/c1c(N)ncnc1N1CCC(NC(=O)Nc2ccc(C(C)C)cc2)C1 (centres unmarked) | Not fulfilled
